Entry source: the RNAGym collection of RNA variant scans (doi:10.1038/nmeth.2970)

Reported Kd by item:
B1: GFP aptamer (parent)
chain: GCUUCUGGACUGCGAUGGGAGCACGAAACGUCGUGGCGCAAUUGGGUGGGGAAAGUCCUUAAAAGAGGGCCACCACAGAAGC

Variants of: B1
Assay: HiTS-RAP
Conditions: with EGFP
Give the value in nM but do not write nM after it.

Worked cases, Kd given:
| variant.id | measured.metric | measured.result |
| --- | --- | --- |
| C37G | Kd | 15.5 |
| A27G C71U | Kd | 17.8 |
| C13U A27G | Kd | 7.37 |
| A75G A79G | Kd | 6.58 |
| A15G G25A | Kd | 2.42 |

[Q] What does the data say about its Kd? Entry: G50C
[A] 67.7

[Q] Kd lookup needed for C10U , thanks.
[A] 4.3

[Q] I have this variant here, C58U C74U , and I need its recorded Kd.
[A] 5.94

[Q] Field request: Kd | item: C13U C74U
[A] 17.4

[Q] Name the reported Kd value associated with the variant C32U C74U
[A] 11.9

[Q] Which Kd is reported for this variant? C13U C70U
[A] 2.02

[Q] What Kd value was documented for this variant, A75U ?
[A] 26.3

[Q] Give its Kd value. Item: U16A
[A] 5.38

[Q] Could you share which Kd value was measured for C13U A26G ?
[A] 2.37

[Q] Report Kd for G78U please.
[A] 6.2

[Q] Any idea what Kd was measured for C5A ?
[A] 8.09

[Q] Field request: Kd | item: A23C
[A] 13.2

[Q] Fill blank: measured Kd of the variant A27G C70U is ____.
[A] 17

[Q] I would be grateful if you could share the reported Kd for A15U .
[A] 10.3

[Q] Entry under review: G30C . Reported Kd?
[A] 4.2

[Q] May I ask what Kd has been recorded for A28G G46A ?
[A] 14.2

[Q] Can you share its Kd? I mean this variant: A28G U47A
[A] 3.89
